# Test system: P. falciparum 3D7 trophozoites
# measurement protocol: Metabolomic fingerprint profiling LC-MS
# Type: cell-based, Plasmodium falciparum
# particulars: metabolite Octoluse Bisphosphate; S2 Table Metabolomics, change in metabolite level after compound treatment
// assign True if Octoluse Bisphosphate falls strictly below -0.3, else False (ties count as False)

- input smiles: "CN1CCN(c2ccc(Nc3c4ccccc4nc4ccccc34)cc2)CC1"
  assigned label: "False"

Problem: Confirm or reject: Octoluse Bisphosphate of Cc1cc(C)cc(Nc2cc(C)nc3nc(C(F)(F)F)nn23)c1 lies strictly below -0.3
Result: True

Problem: Confirm or reject: Octoluse Bisphosphate of COc1ccc(C=C2SC(=N)N(c3ccccc3OC)C2=O)cc1 lies strictly below -0.3
Result: False

Problem: Confirm or reject: Octoluse Bisphosphate of CNCCCNc1ccnc2cc(Cl)ccc12 lies strictly below -0.3
Result: True

* * *

# Test system: P. falciparum 3D7 trophozoites
# measurement protocol: Metabolomic fingerprint profiling LC-MS
# Type: cell-based, Plasmodium falciparum
# particulars: S2 Table Metabolomics; metabolite dTTP
List of dTTP values.
Form rule: numeric answer, no unit written next to it.

Sample answers from the record:
- compound: "COc1ccccc1N=C1C(=O)c2ccccc2C(O)=C1N1CCCCC1"
  dTTP: 0.09879
- compound: "CCc1c(C)c(=N)c2ccccc2n1C"
  dTTP: 0.1315
- compound: "Cc1cccc(Nc2nc(N)c3ccccc3n2)c1"
  dTTP: -0.142
- compound: "COc1ccc(-c2c(C)nn3c(N)c(C#N)cnc23)cc1OC"
  dTTP: 0.1329
- compound: "Cc1cc(C=C2SC(=Nc3ccccc3)N(C3CCCC3)C2=O)c(C)n1-c1ccc(Cl)cc1"
  dTTP: -0.4815

Problem: State, for P. falciparum 3D7 trophozoites, measured dTTP of the compound listed here: CC(C)(C)c1ccc(O)c(CNC2CCCCC2)c1
Result: 0.1164

Problem: State, for P. falciparum 3D7 trophozoites, measured dTTP of the compound listed here: COc1ccc(NC(=O)C2c3ccccc3C(=O)N(CC(C)C)C2c2cccs2)cc1Cl (stereo not shown)
Result: 1.5

Problem: State, for P. falciparum 3D7 trophozoites, measured dTTP of the compound listed here: CCc1ccc(Nc2cc(C)c3ccc(O)cc3n2)cc1
Result: -0.746

* * *

# System: P. falciparum 3D7 trophozoites
# measurement protocol: Metabolomic fingerprint profiling LC-MS
# Format: cell-based, Plasmodium falciparum
# particulars: S2 Table Metabolomics; metabolite N-acetyl-L-ornithine
// assign Criterion met if N-acetyl-L-ornithine falls strictly below -0.2, else Criterion not met (ties count as Criterion not met)

Reference set, count: 5
- compound: "CN(C)c1ccc(C(O)(c2ccc(N(C)C)cc2)c2ccc(N(C)C)cc2)cc1 [MMV665941]"
  assigned label: "Criterion met"
- compound: "COc1ccc(NC(=O)C2c3ccccc3C(=O)N(CC(C)C)C2c2cccs2)cc1 (stereo not shown) [MMV000662]"
  assigned label: "Criterion met"
- compound: "CCOC(=O)c1cnc2ccc(CC)cc2c1O [MMV007116]"
  assigned label: "Criterion not met"
- compound: "CCN(CC)CCNc1ccnc2cc(Cl)ccc12 [MMV006087]"
  assigned label: "Criterion met"
- compound: "Cc1cc(NCCN2CCCCC2)c2ccc3ccccc3c2n1 [MMV006203]"
  assigned label: "Criterion not met"

Problem: Confirm or reject: N-acetyl-L-ornithine of Oc1ccccc1CNCC12CC3CC(CC(C3)C1)C2 [MMV020788] lies strictly below -0.2
Result: Criterion met

Problem: Confirm or reject: N-acetyl-L-ornithine of OC(CNC1CCCCC1)Cn1c2ccccc2c2ccccc21 (stereo not shown) [MMV009063] lies strictly below -0.2
Result: Criterion met

Problem: Confirm or reject: N-acetyl-L-ornithine of CSc1ccccc1C(=O)Nc1nc(-c2ccccn2)cs1 [MMV001246] lies strictly below -0.2
Result: Criterion not met

Problem: Confirm or reject: N-acetyl-L-ornithine of CCOC(=O)c1cn(CC)c2cc(N(C)CCc3ccc(OC)c(OC)c3)c(F)cc2c1=O [MMV665977] lies strictly below -0.2
Result: Criterion not met
